protocolDetails: Quantitative highthroughput screen to assess conditional lethalithy of SEM cells grown in RPMI1640 with unreated serum (RPMI+s) (AID 1963883); also: nearly all actives have a fitted effect of over 35% in size
conditionParameters: SEM B-ALL cells, CellTiter-Glo viability, 48 h; series mostly up to 45.8 µM
Inconclusive results are not listed. Calls of active or inactive are those of the source. Calls follow the shape of the dose curve; as a rule, active = well fitted cell-killing curve with a large enough effect; inconclusive = small, poorly fitted or top-dose-only effect, or effect the other way; inactive = no such curve, though single readings can be large or run the other way.
Outcomes: t (active), f (inactive)

molecule	groupLabel
COc1cc(OC2CCN(C)CC2)ccc1Nc1ncc2c(n1)n(C1CCCC1)c(=O)n2C	t
O=C(O)CCNC(=O)c1ccc(N=Nc2ccc(O)c(C(=O)O)c2)cc1	f
CC=CC1=C(C(=O)O)N2C(=O)[C@H](NC(=O)[C@H](N)c3ccc(O)cc3)[C@@H]2SC1	f
CC1(C)CC(=O)c2c(C(F)(F)F)nn(-c3ccc(C(N)=O)c(NC4CCC(OC(=O)CN)CC4)c3)c2C1 (centres undefined)	t
COCCNCCCn1c(C(=O)CF)c(-c2ccc(C)cc2)c2c(N)ncnc21	t
Cc1cnc(NC(=O)C2=C(O)c3ccccc3S(=O)(=O)N2C)s1	f
Cc1cccc(-c2[nH]c(C(C)(C)C)nc2-c2ccc3c(c2)OCO3)n1	t
CC=C1C2C=C(C)CC1(N)c1ccc(=O)[nH]c1C2 (centres undefined)	f
O=C(OC1C[C@H]2CC[C@@H](C1)[N+]21CCCC1)C(O)(c1ccccc1)c1ccccc1 (some centres undefined)	f
COc1cc2c(cc1OC)[C@@H]1Cc3ccc(OC)c(OC)c3CN1CC2	f
O=c1[nH]c(=O)n([C@H]2C[C@@H](O)[C@@H](CO)O2)cc1C=CBr	f
CON=C(C(=O)N[C@@H]1C(=O)N2C(C(=O)OCOC(=O)C(C)(C)C)=C(C=Cc3scnc3C)CS[C@H]12)c1csc(N)n1	t
Cc1oncc1C(=O)Nc1ccc(C(F)(F)F)cc1	f
NCCCC(O)(P(=O)(O)O)P(=O)(O)O	t
CC1(C)CCC(C)(C)c2cc(NC(=O)c3ccc(C(=O)O)cc3)ccc21	f
CN(C(=O)c1ccc(F)cc1C(F)(F)F)C1CCN(c2nnc(-c3ccnn3C)c3ccccc23)CC1	f
C[C@H](NC(=O)C(=O)Nc1ccccc1C(C)(C)C)C(=O)N[C@@H](CC(=O)O)C(=O)COc1c(F)c(F)cc(F)c1F	t
CC[C@H]1OC(=O)[C@H](C)[C@@H](O[C@H]2C[C@@](C)(OC)[C@@H](O)[C@H](C)O2)[C@H](C)[C@@H](O[C@@H]2O[C@@H](C)C[C@H](N(C)C)[C@@H]2O)[C@](C)(O)C[C@@H](C)C(=O)[C@H](C)[C@@H](O)[C@]1(C)O	t
COc1cc(N2CCC(C(N)=O)CC2)ccc1Nc1nc(N)c(Cl)c(Nc2ccccc2S(=O)(=O)C(C)C)n1	t

###

protocolDetails: Quantitative highthroughput screen to assess conditional lethalithy of SEM cells grown in RPMI1640 with unreated serum (RPMI+s) (AID 1963883); also: nearly all actives have a fitted effect of over 35% in size
conditionParameters: SEM B-ALL cells, CellTiter-Glo viability, 48 h; series mostly up to 45.8 µM
Results filed as inconclusive are left out. Calls of active or inactive are those of the source. Calls come from the whole dose curve; as a rule, active = well fitted cell-killing curve with a large enough effect; inconclusive = small, poorly fitted or top-dose-only effect, or effect the other way; inactive = no such curve, though single readings can be large or run the other way.
Classes used: True = active, False = inactive

molecule	groupLabel
CCN(CC)CCCCNc1ncc2c(n1)N(C)C(=O)N(c1c(Cl)c(OC)cc(OC)c1Cl)C2	True
NC1(Cc2ccc(Cl)cc2)CCN(c2ncnc3[nH]ccc23)CC1	True
Cc1nc2ccc(CN(C)c3ccc(C(=O)N[C@@H](CCC(=O)O)C(=O)O)s3)cc2c(=O)[nH]1	False
CC(C)[C@H](CO)Nc1nc(Nc2cccc(Cl)c2)c2ncn(C(C)C)c2n1	True
Cc1nc(C(=O)NCC(=O)O)c(O)c2ccc(Oc3ccccc3)cc12	False
O=Nc1c(-c2c(O)[nH]c3cc(Br)ccc23)[nH]c2ccccc12	True
CCCS(=O)(=O)Nc1ccc(F)c(C(=O)c2c[nH]c3ncc(Cl)cc23)c1F	True
Cc1cncc2cccc(S(=O)(=O)N3CCCN(C(=O)CN)C[C@@H]3C)c12	True
CN1c2ccccc2C(=O)N2CCc3c([nH]c4ccccc34)C21 (stereo not given)	False
O=C(O)CCCCC(CCSCc1ccccc1)SCc1ccccc1 (stereo not given)	False
CC1(C)[C@H]2CC[C@]3(C)[C@@H](C(=O)C=C4[C@@H]5C[C@@](C)(C(=O)O)CC[C@]5(C)CC[C@]43C)[C@@]2(C)CC[C@@H]1O	False
Cn1cnc2c(F)c(Nc3ccc(Br)cc3Cl)c(C(=O)NOCCO)cc21	True
CCOc1cc(C(C)(C)C)ccc1C1=N[C@@](C)(c2ccc(Cl)cc2)[C@@](C)(c2ccc(Cl)cc2)N1C(=O)N1CCN(CC(=O)N2CCOCC2)CC1	True
CCCc1nc2c(C)cc(-c3nc4ccccc4n3C)cc2n1Cc1ccc(-c2ccccc2C(=O)O)cc1	False
NC1CCC(Nc2nc(Nc3ccc(C(=O)N4CCCCC4)cc3)c3ncn(-c4cccc(F)c4)c3n2)CC1 (stereo not given)	False
CCOC(=O)C1=C(C)NC(=S)NC1c1cccc(O)c1 (stereo not given)	True
CS(=O)c1ccc(-c2nc(-c3ccc(F)cc3)c(-c3ccncc3)[nH]2)cc1 (stereo not given)	True
CC(C)[C@H](N)C(=O)OCCOCn1cnc2c(=O)[nH]c(N)nc21	False
COc1ccc(-c2coc3cc(O)ccc3c2=O)cc1	False
COC(=O)[C@H](c1ccccc1Cl)N1CCc2sccc2C1	False
CCc1cccc(CC)c1NC(=O)N1Cc2[nH]nc(NC(=O)c3ccc(N4CCN(C)CC4)cc3)c2C1	True
Cc1ccc2nc(NCCN)c3ncc(C)n3c2c1	True
Fc1cc(-c2cccc3ncc(-c4cnn(C5CCNCC5)c4)nc23)cc(F)c1CN1CCOCC1	True
COC(=O)C1=C(C)NC(C)=C(C(=O)OCCN2CCN(C(c3ccccc3)c3ccccc3)CC2)C1c1cccc([N+](=O)[O-])c1 (stereo not given)	False
CC(C)Cc1ccc(C(C)C(=O)O)cc1 (stereo not given)	True
N#CNC(=NCCCCCCOc1ccc(Cl)cc1)Nc1ccncc1	False
COc1ccccc1-c1cccc(-c2c(O)c3cc(C#N)c(Cl)cc3[nH]c2=O)c1	True
Nc1nc(Cl)nc2c1ncn2[C@@H]1O[C@H](CO)[C@@H](O)[C@H]1F	False
CCC(=C(c1ccc(O)cc1)c1ccc(OCCNC)cc1)c1ccccc1	True
O=C(NCC1CN(c2ccc(N3CCOCC3=O)cc2)C(=O)O1)c1ccc(Cl)s1 (stereo not given)	False
CC1CNc2c(cccc2S(=O)(=O)N[C@@H](CCCN=C(N)N)C(=O)N2CC[C@@H](C)C[C@@H]2C(=O)O)C1 (stereo not given in full)	False
CCC(=O)NCC[C@@H]1CCc2ccc3c(c21)CCO3	True
O=C1NC(=O)C(=Cc2ccc3nccnc3c2)S1	False
CC(=O)O[C@]1(C(C)=O)CC[C@@H]2[C@@H]3C[C@H](C)C4=CC(=O)CC[C@]4(C)[C@H]3CC[C@@]21C	False
O=C(Nc1cc(C(F)(F)F)cc(C(F)(F)F)c1)c1cc(Cl)ccc1O	True
CN1[C@H]2CC[C@H]1CC(OC(=O)c1c[nH]c3ccccc13)C2 (stereo not given in full)	False
CC(C)Nc1cc(C(F)(F)F)cc2nc(NC(=O)c3cccnc3)nn12	True
C[C@]12CC[C@@H]3c4ccc(O)cc4CC[C@H]3[C@H]1C[C@@H](O)[C@H]2O	False
NS(=O)(=O)c1cc2c(cc1Cl)NCNS2(=O)=O	False
C[N+]1(C)[C@@H]2CC(OC(=O)[C@H](CO)c3ccccc3)C[C@H]1[C@H]1O[C@@H]12 (stereo not given in full)	False

###

protocolDetails: Viability qHTS for spleen associated tyrosine kinase inhibitor (SYKi) naive MV4-11 cells (AID 1963823); also: nearly all actives have a fitted effect of over 40% in size; also: potency is read from the fitted curve at half-maximal effect
conditionParameters: MV4-11 AML viability, CellTiter-Glo luminescence, 72 h; series mostly up to 45 µM
Results filed as inconclusive are left out. Calls of active or inactive are those of the source. The call rests on the fitted dose curve; in most records, active means well fitted cell-killing curve with a large enough effect; inconclusive means small, poorly fitted or top-dose-only effect, or effect the other way; inactive means no such curve, though single readings can be large or run the other way.
measureName: Potency

compound	valueObserved
CC1=C(c2ccc(O)cc2)[C@H](c2ccc(OCCN3CCCCC3)cc2)Oc2cc(O)ccc21	8.33 µM (active)
Cc1noc(-c2ccc(-c3ccc(C4(C(=O)O)CC4)cc3)cc2)c1NC(=O)O[C@H](C)c1ccccc1	16.6 µM (active)
Cc1ccccc1N1C(=O)c2cc(S(N)(=O)=O)c(Cl)cc2NC1C (centres undefined)	inactive
C=C(C)C(=O)O[C@H]1[C@H]2C(=C)C(=O)O[C@@H]2/C=C(\CO)CC/C=C(/C=O)[C@@H]1O	10.1 µM (active)
OC[C@H]1O[C@@H](Oc2ccccc2)[C@H](O)[C@@H](O)[C@@H]1O	inactive
CCCCCCCCCCCCCC[N+](C)(C)Cc1ccccc1	2.99 µM (active)
C/C(=C/CCC(CO)C1CCC2(C)C3CCC4C(C)(C)C(OC5OC(CO)C(O)C(O)C5O)CC(O)C45CC35CCC12C)COC1OC(CO)C(O)C(O)C1O (centres undefined)	inactive
CCCCCC[C@@H](CCC)C(=O)O	inactive
C=C1/C(=C\C=C2/CCC[C@]3(C)[C@@H]([C@H](C)CCCC(C)(C)O)CC[C@@H]23)C[C@@H](O)C[C@@H]1O	0.0186 µM (active)
